In this section we review reported melting point values for a set of compounds.

Completed entries (count: 10):
[
  {
    "compound": "CCOC(=O)COc1ccc([N+](=O)[O-])c(C=C2NC(=O)NC2=O)c1",
    "measured result": "268 to 270 °C"
  },
  {
    "compound": "CCCc1c(OCC2(Sc3ccc(C(=O)CCC(=O)O)cc3)CCCCC2O)ccc(C(C)=O)c1O (centres undefined)",
    "measured result": "65 to 67 °C"
  },
  {
    "compound": "CC(C)c1ccc(C2c3ccc(O)cc3OC2(C)C)cc1 (centres undefined)",
    "measured result": "114 to 115 °C"
  },
  {
    "compound": "Cc1ccc(S(=O)(=O)Nc2cccc(-c3cc(O)c(SCCc4ccccc4)c(=O)o3)c2)cc1",
    "measured result": "133 to 135 °C"
  },
  {
    "compound": "O=C(O)[C@@H]1CCCN1C(=O)C1CCCCN1 (some centres undefined)",
    "measured result": "181 °C"
  },
  {
    "compound": "CC(Cc1c[nH]c2ccccc12)(NC(=O)OC1C2CC3CC(C2)CC1C3)C(=O)NCC(CCC(=O)O)c1ccccc1 (centres undefined)",
    "measured result": "117 to 122 °C"
  },
  {
    "compound": "CCOC(=O)c1cc(OCc2ccccc2)ccc1OCC(F)(F)F",
    "measured result": "145 to 146 °C"
  },
  {
    "compound": "CC(C)OC(=O)C1CCCN1S(=O)(=O)c1ccc(N2CCC(NCC(O)COc3cccc4[nH]c(=O)[nH]c34)CC2)cc1 (centres undefined)",
    "measured result": "74 to 83 °C"
  },
  {
    "compound": "Cc1cc(=S)cc(C)n1CCNC(=O)OC(C)(C)C",
    "measured result": "175 to 178 °C"
  },
  {
    "compound": "CCOC(=O)N=P(c1ccccc1)(c1ccccc1)c1ccccc1CN(C)C",
    "measured result": "103 to 105 °C"
  }
]

Task item: Complete the entry with melting point for `Nc1ccccc1Oc1ccc2ncccc2c1`
Reply: 115 to 117 °C

Task item: Complete the entry with melting point for `O=Cc1c(-c2cccc(C(F)(F)F)c2)sc2ccccc12`
Reply: 103 to 104 °C

Task item: Complete the entry with melting point for `CN(Cc1ccc(NC(=O)C2=Cc3cc(-c4cccc(Cl)c4)ccc3S(=O)(=O)CC2)cc1)C1CCOCC1`
Reply: 221 to 224 °C

----------
observable: melting point

[
  {
    "compound": "CC(C)CCOC(=O)C(O)C(CC(C)C)NC(=O)C(Cc1c[nH]cn1)NC(=O)C(CC(=O)NCCc1ccccc1)Cc1cccc2ccccc12 (mixture of isomers)",
    "measured result": "82 to 87 °C"
  }
]

Now for another entry.
Task item: Complete the entry with melting point for `COC[C@@H](NC(C)=O)C(=O)NCc1ccc(I)cc1`
Reply: 159 to 160 °C

----------
observable: melting point

Completed entries (count: 3):
[
  {
    "molecule": "COc1cc(-c2ccccn2)cc([N+](=O)[O-])c1OC",
    "measured result": "89 to 90 °C"
  },
  {
    "molecule": "Nc1ccccc1Sc1ncc[nH]1",
    "measured result": "135 to 137 °C"
  },
  {
    "molecule": "COc1ccc(C=Cc2ccc(OC)c(OC)c2)cc1",
    "measured result": "131 to 134 °C"
  }
]

Task item: Complete the entry with melting point for `CCCc1c(OCCCCCOc2ccc(C(=O)c3ccc(C(=O)O)cc3)cc2CCC(=O)O)ccc2c1OCCC2=O`
Reply: 175 to 177 °C

Task item: Complete the entry with melting point for `COc1cc2c(cc1OC)C(C(CO)CO)=NCC2`
Reply: 129 °C

Task item: Complete the entry with melting point for `O=C1Nc2ccc(-c3ccc(Cl)cc3)cc2C1=O`
Reply: 246 to 252 °C

Task item: Complete the entry with melting point for `Cc1c(Cl)c(Cl)c(Cl)c(CCl)c1Cl`
Reply: 88 to 89 °C

Task item: Complete the entry with melting point for `CCCc1cc(Cl)c2oc(Cc3ccc(Cl)cc3)c(C)c2c1O`
Reply: 76 to 77 °C

Task item: Complete the entry with melting point for CCOC(=O)C(C#N)(CCCN(C)CCc1ccc(C(=O)OC)cc1)c1ccc(OC)c(OC)c1 (stereo unspecified)
Reply: 75 to 77 °C

Task item: Complete the entry with melting point for `O=C1CCNN1c1ccc(Cl)cc1`
Reply: 120 to 122 °C

Task item: Complete the entry with melting point for `CC(C)c1cn2cccc(CO)c2n1`
Reply: 97 to 99 °C

Task item: Complete the entry with melting point for `CC(C)Cn1cnc2c(N)nc3ccc(-c4ccccc4)cc3c21`
Reply: 203 to 204 °C

Task item: Complete the entry with melting point for `Cc1ccc(NC(=O)c2ccc(C(=O)Nc3ccccc3NC(=O)OC(C)(C)C)s2)cc1Nc1nccc(-c2cccnc2)n1`
Reply: 206 to 208 °C

Task item: Complete the entry with melting point for COC(=O)/C(O)=C1/C(=O)c2ccc(OC)cc2CC1C (stereo unspecified)
Reply: 89 to 89.6 °C

Task item: Complete the entry with melting point for `O=Cc1cc2c(ccc3ccoc32)c2ccccc12`
Reply: 164 to 166 °C

Task item: Complete the entry with melting point for `O=S1(=O)c2cccc3cccc(c23)N1CCN1CCC(CC2=Cc3ccccc3C2)CC1`
Reply: 176 °C

Task item: Complete the entry with melting point for `CCOC(=O)c1ccc(NCCc2cccc3ccccc23)cc1`
Reply: 104 to 106 °C

Task item: Complete the entry with melting point for `COc1ccc(N2CCc3c(C)nc4ccccc4c32)c(C)c1`
Reply: 115 to 117 °C

Task item: Complete the entry with melting point for CCOC(=O)c1ccc(N2CCC(NCC(O)COc3cccc([N+](=O)[O-])c3N)CC2)nc1 (stereo unspecified)
Reply: 140 to 142 °C

Task item: Complete the entry with melting point for `COc1ccc(-c2c(Cl)ncn2-c2ccc(S(=O)(=O)NC(C)(C)C)cc2)cc1F`
Reply: 208 to 210 °C

Task item: Complete the entry with melting point for `CC(C)c1cccc(C(C)C)c1NC(=O)CN`
Reply: 88 to 95 °C
